# Protocol: Solubility of the compound
# Assay type: physicochemical
Catalogue of solubility readings, one per entry.
Note: unit µM is implicit; provide only the numeric part.

Please review the following examples before continuing.
[
  {
    "Compound": "CCCC1=C(C(=O)OC)C(c2ccc(F)cc2Cl)C(C#N)=C(C)N1 (centres undefined)",
    "Parameter Measured": "solubility",
    "Unit": "µM",
    "Observed": 5
  },
  {
    "Compound": "COC(=O)C1=C(Cn2ccnc2)NC(C)=C(C#N)C1c1ccc(F)cc1Cl (centres undefined)",
    "Parameter Measured": "solubility",
    "Unit": "µM",
    "Observed": 5
  }
]

Shifting focus to the compound that follows.
Briefly, solubility measured for COC(=O)C1=C(Cn2cnnn2)NC(C)=C(C#N)C1c1ccc(F)cc1Cl (centres undefined) : 31

###

# Protocol: Half life in Sprague-Dawley rat at 5 mg/kg, iv
# Assay type: ADME, organism-based
# Set-up: dose 5 mg/kg, route intravenous
# Test Conditions: in vivo
Parameter Measured: half-life
Enter the number, and then the unit.

Briefly, half-life measured for COC(=O)C1=C(Cn2cnnn2)NC(C)=C(C#N)C1c1ccc(F)cc1Cl (stereo unspecified) : 4.84 h

###

# System: Liver microsomes
# Protocol: Metabolic stability in rat liver microsomes assessed as compound remaining; further: time not given here
# Type: ADME, Microsome
Parameter Measured: Stability (%)
Note: unit % is implicit; provide only the numeric part.

[
  {
    "Molecule": "COC(=O)C1=C(C)NC(C)=C(C#N)C1c1ccc(F)cc1Cl (centres undefined)",
    "Parameter Measured": "Stability",
    "Unit": "%",
    "Observed": 14
  },
  {
    "Molecule": "CCCCC1=C(C(=O)OC)C(c2ccccc2Cl)C(C#N)=C(C)N1 (centres undefined)",
    "Parameter Measured": "Stability",
    "Unit": "%",
    "Observed": 3
  },
  {
    "Molecule": "COC(=O)C1=C(C(F)(F)F)NC(C)=C(C#N)C1c1ccc(F)cc1Cl (centres undefined)",
    "Parameter Measured": "Stability",
    "Unit": "%",
    "Observed": 6
  },
  {
    "Molecule": "COC(=O)C1=C(Cn2cncn2)NC(C)=C(C#N)C1c1ccc(F)cc1Cl (centres undefined)",
    "Parameter Measured": "Stability",
    "Unit": "%",
    "Observed": 34
  },
  {
    "Molecule": "COC(=O)C1=C(Cn2ccnc2)NC(C)=C(C#N)C1c1ccc(F)cc1Cl (centres undefined)",
    "Parameter Measured": "Stability",
    "Unit": "%",
    "Observed": 64
  }
]

Briefly, Stability measured for COC(=O)C1=C(Cn2cccn2)NC(C)=C(C#N)C1c1ccc(F)cc1Cl (centres undefined) : 31

Briefly, Stability measured for COC(=O)C1=C(Cn2cnnn2)NC(C)=C(C#N)C1c1ccc(F)cc1Cl (centres undefined) : 60

Briefly, Stability measured for CCCC1=C(C(=O)OC)C(c2ccc(F)cc2Cl)C(C#N)=C(C)N1 (centres undefined) : 4

Briefly, Stability measured for CCCC1=C(C(=O)OC)C(c2ccccc2Cl)C(C#N)=C(C)N1 (centres undefined) : 13

###

Observed IC50, system Cytochrome P450 2C9 (Homo sapiens, UniProt P11712).

[
  {
    "Molecule": "COC(=O)C1=C(Cn2cccn2)NC(C)=C(C#N)C1c1ccc(F)cc1Cl (configuration not stated)",
    "Observed": "600 nM"
  }
]

Shifting focus to the molecule that follows.
Briefly, IC50 measured for COC(=O)C1=C(Cn2cncn2)NC(C)=C(C#N)C1c1ccc(F)cc1Cl (configuration not stated) : 100 nM

Ref: ChEMBL document CHEMBL1212896
